molecular target: CLK4 (UniProt Q9HAZ1); experiment: pIC50, kinobeads binding competition; conditions: cell material: Lysate mix
Sequence (Q9HAZ1 whole entry, looked up): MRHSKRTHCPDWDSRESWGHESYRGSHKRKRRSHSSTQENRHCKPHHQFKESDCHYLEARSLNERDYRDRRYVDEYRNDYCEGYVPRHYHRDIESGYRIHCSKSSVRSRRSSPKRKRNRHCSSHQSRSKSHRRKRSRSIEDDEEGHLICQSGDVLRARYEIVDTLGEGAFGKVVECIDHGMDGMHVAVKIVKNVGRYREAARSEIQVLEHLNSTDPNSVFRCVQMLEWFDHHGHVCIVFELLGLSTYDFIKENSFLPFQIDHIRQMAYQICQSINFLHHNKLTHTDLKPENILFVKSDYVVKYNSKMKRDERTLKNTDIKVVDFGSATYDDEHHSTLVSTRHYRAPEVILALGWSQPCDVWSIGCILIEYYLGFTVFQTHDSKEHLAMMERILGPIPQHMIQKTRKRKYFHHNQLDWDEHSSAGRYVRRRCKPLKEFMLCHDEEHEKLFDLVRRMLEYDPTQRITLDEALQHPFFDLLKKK
experimental_readout: pIC50

Some solved entries appear below for comparison.
Cc1cc(Nc2cc(C(=O)NCCNC(=O)OC3CC/C=C/CCC3)nc(N3CCN(Cc4ccc(S(=O)(=O)F)cc4)CC3)n2)n[nH]1 (stereo not drawn) : < 4.52
CCNC(=O)c1cc(Nc2cc(C)[nH]n2)nc(N2CCN(Cc3ccc(S(=O)(=O)F)cc3)CC2)n1 : < 4.52

Exercise: For the compound shown here, O=C(NCCNC(=O)c1cc(Nc2cc(C3CC3)[nH]n2)nc(N2CCN(Cc3ccc(S(=O)(=O)F)cc3)CC2)n1)OC1CC/C=C/CCC1 (stereo not drawn) , give the reported pIC50.
Solution: < 4.52

###

molecular target: UniProt O95747; test: pIC50, kinobeads binding competition; settings: cell material: Lysate mix
Sequence (O95747 whole entry, looked up): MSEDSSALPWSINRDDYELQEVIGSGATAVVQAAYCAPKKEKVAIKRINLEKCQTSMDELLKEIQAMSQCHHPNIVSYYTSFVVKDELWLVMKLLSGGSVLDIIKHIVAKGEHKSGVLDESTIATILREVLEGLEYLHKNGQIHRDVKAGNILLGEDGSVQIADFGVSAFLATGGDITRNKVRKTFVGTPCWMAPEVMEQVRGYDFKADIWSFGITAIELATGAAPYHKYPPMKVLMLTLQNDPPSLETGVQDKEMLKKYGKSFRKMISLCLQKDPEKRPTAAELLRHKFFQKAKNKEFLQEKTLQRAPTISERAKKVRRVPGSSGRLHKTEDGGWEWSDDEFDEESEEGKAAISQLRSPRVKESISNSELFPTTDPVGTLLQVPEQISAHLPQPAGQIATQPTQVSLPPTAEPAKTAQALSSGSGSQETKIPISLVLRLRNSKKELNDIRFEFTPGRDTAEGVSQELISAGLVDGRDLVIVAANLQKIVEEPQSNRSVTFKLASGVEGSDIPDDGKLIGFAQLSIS
Below: a set of entries, each annotated with reported pIC50.

Some solved entries appear below for comparison.
CCNC(=O)c1cc(Nc2cc(C)[nH]n2)nc(N2CCN(Cc3ccc(S(=O)(=O)F)cc3)CC2)n1 : < 4.52
Cc1cc(Nc2cc(C(=O)NCCNC(=O)OC3CC/C=C/CCC3)nc(N3CCN(Cc4ccc(S(=O)(=O)F)cc4)CC3)n2)n[nH]1 (stereo not drawn) : < 4.52

// next item, pIC50 requested
Exercise: For the molecule shown here, O=C(NCCNC(=O)c1cc(Nc2cc(C3CC3)[nH]n2)nc(N2CCN(Cc3ccc(S(=O)(=O)F)cc3)CC2)n1)OC1CC/C=C/CCC1 (stereo not drawn) , give the reported pIC50.
Solution: < 4.52

###

Target: LATS1 (UniProt O95835)
Sequence (whole entry): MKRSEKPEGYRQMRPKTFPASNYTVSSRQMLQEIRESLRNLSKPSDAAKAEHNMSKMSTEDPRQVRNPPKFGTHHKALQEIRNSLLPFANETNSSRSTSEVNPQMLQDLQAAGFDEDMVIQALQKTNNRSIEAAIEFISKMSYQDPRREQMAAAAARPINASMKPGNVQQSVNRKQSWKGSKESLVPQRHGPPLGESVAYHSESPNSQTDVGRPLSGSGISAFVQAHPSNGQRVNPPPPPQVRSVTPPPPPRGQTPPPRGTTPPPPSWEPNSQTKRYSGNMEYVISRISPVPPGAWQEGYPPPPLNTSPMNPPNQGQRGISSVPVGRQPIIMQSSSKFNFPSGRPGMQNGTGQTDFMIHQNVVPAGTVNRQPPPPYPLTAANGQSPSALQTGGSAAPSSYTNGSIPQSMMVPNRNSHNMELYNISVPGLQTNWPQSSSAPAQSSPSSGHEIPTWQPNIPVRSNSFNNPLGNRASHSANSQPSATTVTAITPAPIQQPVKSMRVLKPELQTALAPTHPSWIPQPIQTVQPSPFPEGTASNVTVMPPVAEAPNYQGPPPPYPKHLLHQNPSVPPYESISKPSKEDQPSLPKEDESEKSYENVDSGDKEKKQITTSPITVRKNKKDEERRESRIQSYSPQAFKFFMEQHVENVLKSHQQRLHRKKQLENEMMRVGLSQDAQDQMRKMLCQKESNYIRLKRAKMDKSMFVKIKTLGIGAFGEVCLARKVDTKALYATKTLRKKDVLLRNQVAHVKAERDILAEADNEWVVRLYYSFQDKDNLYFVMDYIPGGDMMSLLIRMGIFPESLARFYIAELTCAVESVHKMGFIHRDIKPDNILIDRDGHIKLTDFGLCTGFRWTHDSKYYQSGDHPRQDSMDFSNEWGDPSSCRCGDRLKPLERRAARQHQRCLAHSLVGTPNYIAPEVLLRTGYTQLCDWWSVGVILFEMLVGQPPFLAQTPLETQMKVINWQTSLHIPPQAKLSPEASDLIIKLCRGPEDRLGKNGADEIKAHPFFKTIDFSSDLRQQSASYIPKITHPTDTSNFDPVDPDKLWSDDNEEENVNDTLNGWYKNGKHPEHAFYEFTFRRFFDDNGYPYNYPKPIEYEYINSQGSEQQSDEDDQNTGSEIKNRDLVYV
Test: pIC50, kinobeads binding competition
Conditions: cell material: Lysate mix
experimental_readout: pIC50

CCNC(=O)c1cc(Nc2cc(C)[nH]n2)nc(N2CCN(Cc3ccc(S(=O)(=O)F)cc3)CC2)n1 : < 4.52

Exercise: For the compound shown here, Cc1cc(Nc2cc(C(=O)NCCNC(=O)OC3CC/C=C/CCC3)nc(N3CCN(Cc4ccc(S(=O)(=O)F)cc4)CC3)n2)n[nH]1 (stereo not drawn) , give the reported pIC50.
Solution: < 4.52

Exercise: For the compound shown here, O=C(NCCNC(=O)c1cc(Nc2cc(C3CC3)[nH]n2)nc(N2CCN(Cc3ccc(S(=O)(=O)F)cc3)CC2)n1)OC1CC/C=C/CCC1 (stereo not drawn) , give the reported pIC50.
Solution: < 4.52
